Assay: in vivo
Design: species or system SD rats
Conditions: rat, po, 15 mg/kg
test.readout: half-life (h)

Example cases with answers are listed next.
molecule	half-life (h)
COc1cc(C(=O)OCCCCCC(=O)O)ccc1OCCn1ccnc1 [Example 3]	3.06
COc1cc(C(=O)OCOC(=O)OC(C)C)ccc1OCCn1ccnc1 [Example 5]	3.43
COc1cc(C(=O)O)ccc1OCCn1ccnc1 [Compound A, reference compound]	10.7

[a] COc1cc(C(=O)OC(C)OC(C)=O)ccc1OCCn1ccnc1 (centres unmarked) [Example 6]
[b] COC(=O)c1ccc(OCCn2ccnc2)c(OC)c1 [Compound A methyl ester, reference compound]
Prompt: Consider entries a and b . Which has the numerically lower half-life? Identify your selection by its label.
Completion: a
(a: 4.86 h, b: 8.4 h)

* * *

Experiment: in vivo
Parameters: species or system SD rats
Conditions: rat, po, 15 mg/kg
test.readout: F (bioavailability relative to compound A) (%)

Example cases with answers are listed next.
compound	recorded.measurement
COc1cc(C(=O)OC(C)OC(C)=O)ccc1OCCn1ccnc1 (stereo not shown)	176.8
COc1cc(C(=O)OCCCCCC(=O)O)ccc1OCCn1ccnc1	200.37

[P] COC(=O)c1ccc(OCCn2ccnc2)c(OC)c1 [Compound A methyl ester, reference compound]
[Q] COc1cc(C(=O)OCOC(=O)OC(C)C)ccc1OCCn1ccnc1
Prompt: Kindly identify which of P and Q has the larger recorded F (bioavailability relative to compound A) value. Identify your selection by its label.
Completion: Q

* * *

Experiment: in vivo
Parameters: species or system SD rats
Settings: rat, po, 15 mg/kg
test.readout: AUC(0-t) (ng·h/mL)

[1] COc1cc(C(=O)OC(C)OC(C)=O)ccc1OCCn1ccnc1 (centres unmarked)
[2] COC(=O)c1ccc(OCCn2ccnc2)c(OC)c1 [Compound A methyl ester, reference compound]
Prompt: Consider entries 1 and 2 . Which has the numerically lower AUC(0-t)? Identify your selection by its label.
Completion: 2

* * *

Experiment: in vivo
Parameters: species or system SD rats
Settings: rat, po, 15 mg/kg
test.readout: Cmax (ng/mL)

Example cases with answers are listed next.
molecule	units.text	Cmax
COc1cc(C(=O)OCOC(=O)OC(C)C)ccc1OCCn1ccnc1 [Example 5]	ng/mL	7080
COc1cc(C(=O)OCCCCCC(=O)O)ccc1OCCn1ccnc1 [Example 3]	ng/mL	8590
COc1cc(C(=O)O)ccc1OCCn1ccnc1 [Compound A, reference compound]	ng/mL	604

[A] COC(=O)c1ccc(OCCn2ccnc2)c(OC)c1 [Compound A methyl ester, reference compound]
[B] COc1cc(C(=O)OC(C)OC(C)=O)ccc1OCCn1ccnc1 (centres unmarked) [Example 6]
Prompt: Kindly identify which of A and B has the larger recorded Cmax value. Identify your selection by its label.
Completion: B

* * *

Test: in vivo
Set-up: species or system SD rats
Conditions: rat, po, 15 mg/kg
Procedure: Eighteen SD male rats (purchased from Weitong Lihua Experimental Animal Technology Co., Ltd., certificate number: 20211103Aazz0619000910), weighing 240-280 g, were randomly divided into 6 groups, with 3 rats in each group. The animals were fasted overnight before administration. On the day of administration, the compounds of Examples 3, 4, 5, 6, Compound A. and Compound A methyl ester were gavaged to the animals in each groups respectively, and the dosage was 15 mg/kg (calculated as Compound A). […]
test.readout: MRT last (h)

[I] COc1cc(C(=O)OCCCCCC(=O)O)ccc1OCCn1ccnc1
[II] COc1cc(C(=O)OC(C)OC(C)=O)ccc1OCCn1ccnc1 (centres unmarked)
Prompt: Consider entries I and II . Which has the numerically lower MRT last? Identify your selection by its label.
Completion: I
(I: 0.47 h, II: 1.09 h)

[P] COc1cc(C(=O)OCOC(=O)OC(C)C)ccc1OCCn1ccnc1
[Q] COC(=O)c1ccc(OCCn2ccnc2)c(OC)c1 [Compound A methyl ester, reference compound]
Prompt: Consider entries P and Q . Which has the numerically lower MRT last? Identify your selection by its label.
Completion: P
